test system: OVKATE (Ovarian Carcinoma); test: Bliss excess, mean over the matrix (fraction); higher = more synergy
In this section we review reported Bliss excess values for a set of molecules.
Please reply with the number alone, leaving off any unit.

Molecule	Bliss excess
COc1cc2ncnc(Nc3ccc(F)c(Cl)c3)c2cc1OCCCN1CCOCC1 [Gefitinib] + CC(C)n1c(=O)n(C)c2cnc3cc(F)c(-c4ccc(OCCCN5CCCCC5)nc4)cc3c21 [AZD1390] (first compound max 10 µM, 7x7, partner max 0.3 µM)	-0.0386

So for CN(CCO)CC[C@H](CSc1ccccc1)Nc1ccc(S(=O)(=O)NC(=O)c2ccc(N3CCC([C@@H](O)c4ccccc4-c4ccc(Cl)cc4)CC3)cc2)cc1S(=O)(=O)C(F)(F)F [AZD4320] + C[C@@H](Nc1cc(F)cc(F)c1)c1cc(C(=O)N(C)C)cc2c(=O)cc(N3CCOCC3)oc12 [AZD8186] (first compound max 1 µM, 7x7, partner max 3 µM) , the logged Bliss excess turned out to be -0.0277

---

In this section we review reported Bliss excess values for a set of compounds.
system: BT-474 (Breast Carcinoma); test: Bliss excess, mean over the matrix (fraction); higher = more synergy
Please reply with the number alone, leaving off any unit.

Compound	Study target	Result value
CC1(C)CCC(CN2CCN(c3ccc(C(=O)NS(=O)(=O)c4ccc(NCC5CCOCC5)c([N+](=O)[O-])c4)c(Oc4cnc5[nH]ccc5c4)c3)CC2)=C(c2ccc(Cl)cc2)C1 [Venetoclax] + C[C@@H]1COCCN1C2=NC(=NC(=C2)C3(CC3)[S@](=N)(=O)C)C4=C5C=CNC5=NC=C4 [AZD6738] (first compound max 1 µM, 7x7, partner max 10 µM)	BT-474 (Breast Carcinoma)	-0.0265

So for C=CCn1c(=O)c2cnc(Nc3ccc(N4CCN(C)CC4)cc3)nc2n1-c1cccc(C(C)(C)O)n1 [AZD1775] + C1CN(CCC1(C(=O)N[C@@H](CCO)C2=CC=C(C=C2)Cl)N)C3=NC=NC4=C3C=CN4 [Capivasertib] (first compound max 3 µM, partner max 3 µM) , the logged Bliss excess turned out to be 0.0145

---

system: A375 (Melanoma); assay: Bliss excess, mean over the matrix (fraction); higher = more synergy
In this section we review reported Bliss excess values for a set of compounds.

Some compounds with recorded Bliss excess:
Compound	Bliss excess
C[C@@H]1COCCN1c1cc(C2([S@](C)(=N)=O)CC2)nc(-c2ccnc3[nH]ccc23)n1 [AZD6738] + Nc1ccn([C@@H]2O[C@H](CO)[C@@H](O)C2(F)F)c(=O)n1 [Gemcitabine] (first compound max 10 µM, 7x7, partner max 0.3 µM)	0.0602
CCN(CCO)CCCOc1ccc2c(Nc3cc(CC(=O)Nc4cccc(F)c4)[nH]n3)ncnc2c1 [AZD2811] + C[C@@H]1COCCN1C2=NC(=NC(=C2)C3(CC3)[S@](=N)(=O)C)C4=C5C=CNC5=NC=C4 [AZD6738] (first compound max 1 µM, 7x7, partner max 10 µM)	-0.0573

Consider the record given below.
So for CC1(C)CCC(CN2CCN(c3ccc(C(=O)NS(=O)(=O)c4ccc(NCC5CCOCC5)c([N+](=O)[O-])c4)c(Oc4cnc5[nH]ccc5c4)c3)CC2)=C(c2ccc(Cl)cc2)C1 [Venetoclax] + C[C@@H]1COCCN1C2=NC(=NC(=C2)C3(CC3)[S@](=N)(=O)C)C4=C5C=CNC5=NC=C4 [AZD6738] (first compound max 1 µM, 7x7, partner max 10 µM) , the logged Bliss excess turned out to be -0.0308

---

test system: NCI-H2009 (Lung Adenocarcinoma); assay: combination Emax (second highest fraction inhibited in the dose matrix, 72 h); higher = more inhibition; extreme values may be limits of the assay
In this section we review reported combination Emax values for a set of compounds.
Please reply with the number alone, leaving off any unit.

Compound	Measured property	Result value
COc1cccc(OCCCN)c1-c1cc(Nc2cnc(C#N)cn2)n[nH]1 [Prexasertib] + Cc1cc2ncnn2cc1Nc1ncc2c(n1)n(C1CCOCC1)c(=O)n2C [AZD7648] (first compound max 1 µM, 7x7, partner max 10 µM)	combination Emax	0.45

So for CC(=O)c1c(C)c2cnc(Nc3ccc(N4CCNCC4)cn3)nc2n(C2CCCC2)c1=O [Palbociclib] + Cc1c2c(nn1C)CSCc1cc(n(C)n1)CSc1cc(c3ccccc3c1)OCCCc1c(C(=O)O)n(C)c3c-2c(Cl)ccc13 [AZD5991] (first compound max 10 µM, 7x7, partner max 1 µM) , the logged combination Emax turned out to be 0.179

So for Cc1c2c(nn1C)CSCc1cc(n(C)n1)CSc1cc(c3ccccc3c1)OCCCc1c(C(=O)O)n(C)c3c-2c(Cl)ccc13 [AZD5991] + Cn1cnc2c(F)c(Nc3ccc(Br)cc3Cl)c(C(=O)NOCCO)cc21 [Selumetinib] (first compound max 1 µM, 7x7, partner max 3 µM) , the logged combination Emax turned out to be 0.526

So for N#Cc1cnc(Nc2cc(NC[C@H]3CNCCO3)c(C(F)(F)F)cn2)cn1 [SRA737] + O=c1[nH]cc(F)c(=O)[nH]1 [5-Fluorouracil] (first compound max 10 µM, 7x7, partner max 20 µM) , the logged combination Emax turned out to be 0.444

---

test system: NCI-H2023 (Non-Small Cell Lung Carcinoma); experiment: Bliss excess, mean over the matrix (fraction); higher = more synergy
Measured property: Bliss excess
Please reply with the number alone, leaving off any unit.

Compound	Measured property	Result value
CCN(CCO)CCCOc1ccc2c(Nc3cc(CC(=O)Nc4cccc(F)c4)[nH]n3)ncnc2c1 [AZD2811] + C=CCn1c(=O)c2cnc(Nc3ccc(N4CCN(C)CC4)cc3)nc2n1-c1cccc(C(C)(C)O)n1 [AZD1775] (first compound max 1 µM, partner max 1 µM)	Bliss excess	0.0031
CC1(C)CCC(CN2CCN(c3ccc(C(=O)NS(=O)(=O)c4ccc(NCC5CCOCC5)c([N+](=O)[O-])c4)c(Oc4cnc5[nH]ccc5c4)c3)CC2)=C(c2ccc(Cl)cc2)C1 [Venetoclax] + CS(=O)(=O)CCNCc1ccc(-c2ccc3ncnc(Nc4ccc(OCc5cccc(F)c5)c(Cl)c4)c3c2)o1 [Lapatinib] (first compound max 1 µM, 7x7, partner max 10 µM)	Bliss excess	-0.06

Consider the record given below.
So for CS(=O)(=O)CCNCc1ccc(-c2ccc3ncnc(Nc4ccc(OCc5cccc(F)c5)c(Cl)c4)c3c2)o1 [Lapatinib] + NC1(c2ccc(-c3nc4ccn5c(=O)[nH]nc5c4cc3-c3ccccc3)cc2)CCC1 [MK-2206] (first compound max 10 µM, 7x7, partner max 10 µM) , the logged Bliss excess turned out to be 0.0246

---

In this section we review reported Bliss excess values for a set of compounds.
tested on: OVKATE (Ovarian Carcinoma); experiment: Bliss excess, mean over the matrix (fraction); higher = more synergy
Please reply with the number alone, leaving off any unit.

Some compounds with recorded Bliss excess:
Compound	Study target	Result value
COc1nnc2ccc(N3CCC(c4ccc(OCCN5CCN(C)C(=O)[C@H]5C)cc4)CC3)nn12 [AZD5153] + C=CCn1c(=O)c2cnc(Nc3ccc(N4CCN(C)CC4)cc3)nc2n1-c1cccc(C(C)(C)O)n1 [AZD1775] (first compound max 1 µM, partner max 1 µM)	OVKATE (Ovarian Carcinoma)	-0.0373
CN(CCO)CC[C@H](CSc1ccccc1)Nc1ccc(S(=O)(=O)NC(=O)c2ccc(N3CCC([C@@H](O)c4ccccc4-c4ccc(Cl)cc4)CC3)cc2)cc1S(=O)(=O)C(F)(F)F [AZD4320] + Cn1cnc2c(F)c(Nc3ccc(Br)cc3Cl)c(C(=O)NOCCO)cc21 [Selumetinib] (first compound max 1 µM, 7x7, partner max 3 µM)	OVKATE (Ovarian Carcinoma)	-0.0247
CCc1c2c(nc3ccc(O)cc13)-c1cc3c(c(=O)n1C2)COC(=O)[C@]3(O)CC [SN-38] + O=C(c1cc(Cc2n[nH]c(=O)c3ccccc23)ccc1F)N1CCN(C(=O)C2CC2)CC1 [Olaparib] (first compound max 0.3 µM, 7x7, partner max 10 µM)	OVKATE (Ovarian Carcinoma)	-0.0113
CN(CCO)CC[C@H](CSc1ccccc1)Nc1ccc(S(=O)(=O)NC(=O)c2ccc(N3CCC([C@@H](O)c4ccccc4-c4ccc(Cl)cc4)CC3)cc2)cc1S(=O)(=O)C(F)(F)F [AZD4320] + Nc1ccn([C@@H]2O[C@H](CO)[C@@H](O)C2(F)F)c(=O)n1 [Gemcitabine] (first compound max 1 µM, 7x7, partner max 0.3 µM)	OVKATE (Ovarian Carcinoma)	-0.0542
NC1(C(=O)N[C@@H](CCO)c2ccc(Cl)cc2)CCN(c2ncnc3[nH]ccc23)CC1 [Capivasertib] + Cn1cnc2c(F)c(Nc3ccc(Br)cc3Cl)c(C(=O)NOCCO)cc21 [Selumetinib] (first compound max 10 µM, 7x7, partner max 10 µM)	OVKATE (Ovarian Carcinoma)	0.0215

So for CCc1c2c(nc3ccc(O)cc13)-c1cc3c(c(=O)n1C2)COC(=O)[C@]3(O)CC [SN-38] + CN(C)CCCOc1ccc(-c2ccc3ncc4c(c3c2)n(C2CCOCC2)c(=O)n4C)cn1 [AZD0156] (first compound max 0.3 µM, 7x7, partner max 1 µM) , the logged Bliss excess turned out to be -0.0763

So for COc1nnc2ccc(N3CCC(c4ccc(OCCN5CCN(C)C(=O)[C@H]5C)cc4)CC3)nn12 [AZD5153] + C[C@@H]1COCCN1C2=NC(=NC(=C2)C3(CC3)[S@](=N)(=O)C)C4=C5C=CNC5=NC=C4 [AZD6738] (first compound max 1 µM, 7x7, partner max 10 µM) , the logged Bliss excess turned out to be -0.0027
